Here's a batch of molecules along with measured IC50 for PDE5 (Homo sapiens, UniProt O76074).
Please give a number only; it is taken to be in µM.

> print(dat)
                                   molecule  result.value
1  COC(=O)[C@@H]1Cc2c([nH]c3ccccc23)[C@H](c2cc(OC)ccc2OC)N1 [III]          14.3

Here is another molecule to look at.
Give its IC50 value. Item: CC1=C(CC(=O)O)c2cc(F)ccc2/C1=C\c1ccc(S(C)(=O)=O)cc1 [Exisulind, reference compound]
295

* * *

We begin with a simple list: items and their reported pIC50.
TARGET_SYSTEM: PDE5 (Homo sapiens, UniProt O76074)
EXPERIMENT_DESCRIPTION: IMAP fluorescence polarization PDE assay
Assay type: biochemical
pIC50: −log10 of the molar value.

Example compounds with recorded pIC50:
> print(dat)
                                   compound  result.value
1  CCN1C(=O)[C@@H]2Cc3c([nH]c4ccccc34)[C@H](c3cc(OC)ccc3OC)N2C1=O [VII]        < 4.00
2  COC(=O)[C@H]1Cc2c([nH]c3ccccc23)[C@H](c2cc(OC)ccc2OC)N1 [II]        < 4.00

Give its pIC50 value. Item: CCN1C(=O)[C@H]2Cc3c([nH]c4ccccc34)[C@H](c3cc(OC)ccc3OC)N2C1=S [X]
< 4.00

Entry source: paper PMC4980831
